Value source: paper PMC7819943

- tested system: OsSMF1 (Oryza sativa, UniProt Q6ZLB0 1-436)
- Sequence: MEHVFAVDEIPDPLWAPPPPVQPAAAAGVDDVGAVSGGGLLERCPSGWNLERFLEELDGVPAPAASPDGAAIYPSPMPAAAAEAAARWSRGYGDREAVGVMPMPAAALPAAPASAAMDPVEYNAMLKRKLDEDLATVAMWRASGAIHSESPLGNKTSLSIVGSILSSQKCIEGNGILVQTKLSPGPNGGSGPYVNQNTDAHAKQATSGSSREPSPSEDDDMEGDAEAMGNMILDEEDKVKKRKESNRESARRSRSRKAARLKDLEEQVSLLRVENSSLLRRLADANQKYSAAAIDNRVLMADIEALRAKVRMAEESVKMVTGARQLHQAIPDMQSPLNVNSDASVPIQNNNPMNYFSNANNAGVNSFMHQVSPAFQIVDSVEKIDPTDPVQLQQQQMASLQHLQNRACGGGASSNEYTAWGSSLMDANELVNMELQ
- protocol text: protein-binding microarray (RPBM); PBS, 2% BSA, 51.3 ng/ul salmon testes DNA, 50 uM zinc acetate, 200 nM TF, 25 C, 1 h; high values mean tight binding
- condition label: protein: recombinant; tags: N-terminal polyhistidine and DsRed monomer fusion (pET32a); chain copies: 2; label: CyDye5-dUTP incorporated in the synthesized complementary strand; 3' TTTTT single-stranded linker to array surface; dsDNA, one strand shown
Over roughly 39,000 sequences, “fluorescence intensity (a.u.)” has its median near 4,300; the highest 2% begin near 39,000. The full list was thinned out, with the highest values kept by preference.
measured property: binding signal

TAGTACCAAAGTATTTGTGTGTCACTATGATGTCCTGCCTCGGAGTCACCTAGTGCAG : 6010 fluorescence intensity (a.u.)
GCTAGGTTCAACGTCATGCCTCATGTTGTCTATTGCTGTTCGGAGTCACCTAGTGCAG : 4070 fluorescence intensity (a.u.)
GAGAATGATGTATGCACGCAGATGACATGGTATGATGAACCGGAGTCACCTAGTGCAG : 4370 fluorescence intensity (a.u.)
GTGTTCGACGAAATGCCAACAAGGAACGTGGTGGCGTGGACGGAGTCACCTAGTGCAG : 3500 fluorescence intensity (a.u.)
ACGGACGGGCGTCGGCGCGGGCGATGACGGACTGACGACGCGGAGTCACCTAGTGCAG : 3490 fluorescence intensity (a.u.)

**Query** Find the measured binding signal of GCGAGCAGTCGATGTCCTCGATGACGATGATGGACTTGCTCGGAGTCACCTAGTGCAG with OsSMF1 (Oryza sativa, UniProt Q6ZLB0 1-436) as test system.
**Result** 4140 fluorescence intensity (a.u.)

**Query** Find the measured binding signal of ATGGTTAGCATTAATCACTAATCACGTCATCATTAGTGCTCGGAGTCACCTAGTGCAG with OsSMF1 (Oryza sativa, UniProt Q6ZLB0 1-436) as test system.
**Result** 4040 fluorescence intensity (a.u.)

**Query** Find the measured binding signal of GAACGATGACGGCGCGATGGCCGCCGCCGTGGCGCGGACGCGGAGTCACCTAGTGCAG with OsSMF1 (Oryza sativa, UniProt Q6ZLB0 1-436) as test system.
**Result** 3210 fluorescence intensity (a.u.)

**Query** Find the measured binding signal of CGCGCGCGCCGCCGCCGGTCGGTAACGACGGCGACGATGACGGAGTCACCTAGTGCAG with OsSMF1 (Oryza sativa, UniProt Q6ZLB0 1-436) as test system.
**Result** 65500 fluorescence intensity (a.u.)

**Query** Find the measured binding signal of GGTTGGTATTAACCGCTGATGGTGAATGCCAACCTCAGAACGGAGTCACCTAGTGCAG with OsSMF1 (Oryza sativa, UniProt Q6ZLB0 1-436) as test system.
**Result** 51200 fluorescence intensity (a.u.)

**Query** Find the measured binding signal of GCCGCCGCTGTCGCCATCCACGCTCCGAGCGCCACTGCCACGGAGTCACCTAGTGCAG with OsSMF1 (Oryza sativa, UniProt Q6ZLB0 1-436) as test system.
**Result** 3490 fluorescence intensity (a.u.)

**Query** Find the measured binding signal of GCGCCGCCGGCGCCGCGGCGCGGCCGATGACCACGCCGGACGGAGTCACCTAGTGCAG with OsSMF1 (Oryza sativa, UniProt Q6ZLB0 1-436) as test system.
**Result** 3490 fluorescence intensity (a.u.)

**Query** Find the measured binding signal of CTCACTCGCTTGCGCTTCACCTCGCGGCATCGACTTCCTACGGAGTCACCTAGTGCAG with OsSMF1 (Oryza sativa, UniProt Q6ZLB0 1-436) as test system.
**Result** 3630 fluorescence intensity (a.u.)

**Query** Find the measured binding signal of CATGGTATTGTTTGATGCCAACTGAATTGATACAATGTGACGGAGTCACCTAGTGCAG with OsSMF1 (Oryza sativa, UniProt Q6ZLB0 1-436) as test system.
**Result** 20500 fluorescence intensity (a.u.)

**Query** Find the measured binding signal of TCTCTCTCACTCTTCTCTTGCAGGCCTGCGTGGCATACTACGGAGTCACCTAGTGCAG with OsSMF1 (Oryza sativa, UniProt Q6ZLB0 1-436) as test system.
**Result** 7430 fluorescence intensity (a.u.)

**Query** Find the measured binding signal of TTAGATGAAACCACGATTTGTCAAAATGCATCCAAAACTTCGGAGTCACCTAGTGCAG with OsSMF1 (Oryza sativa, UniProt Q6ZLB0 1-436) as test system.
**Result** 43100 fluorescence intensity (a.u.)

**Query** Find the measured binding signal of CGTGTTCGATTCCGCTGCTATCCACGTCGCTACGCGCCACCGGAGTCACCTAGTGCAG with OsSMF1 (Oryza sativa, UniProt Q6ZLB0 1-436) as test system.
**Result** 7020 fluorescence intensity (a.u.)

**Query** Find the measured binding signal of GGATAAGTGCCCCTACCAATAGGTGGACCCTTGTCACTGGCGGAGTCACCTAGTGCAG with OsSMF1 (Oryza sativa, UniProt Q6ZLB0 1-436) as test system.
**Result** 19300 fluorescence intensity (a.u.)

**Query** Find the measured binding signal of TTCTATAGAAGCTTTCTCTCTTAAAACTCTACCAAAATTTCGGAGTCACCTAGTGCAG with OsSMF1 (Oryza sativa, UniProt Q6ZLB0 1-436) as test system.
**Result** 24000 fluorescence intensity (a.u.)

====

- tested system: OsSMF1 (Oryza sativa, UniProt Q6ZLB0 1-436)
- Sequence: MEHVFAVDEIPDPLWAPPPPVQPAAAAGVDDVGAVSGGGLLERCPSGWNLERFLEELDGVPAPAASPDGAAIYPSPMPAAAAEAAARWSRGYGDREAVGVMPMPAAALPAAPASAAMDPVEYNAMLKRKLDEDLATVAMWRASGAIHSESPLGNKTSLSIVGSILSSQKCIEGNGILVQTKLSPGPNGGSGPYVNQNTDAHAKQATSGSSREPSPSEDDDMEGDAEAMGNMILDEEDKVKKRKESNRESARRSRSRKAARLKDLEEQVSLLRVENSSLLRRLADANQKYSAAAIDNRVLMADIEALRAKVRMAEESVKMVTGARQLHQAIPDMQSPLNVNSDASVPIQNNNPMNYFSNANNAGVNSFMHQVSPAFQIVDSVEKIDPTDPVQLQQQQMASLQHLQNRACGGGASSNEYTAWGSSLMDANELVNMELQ
- protocol text: protein-binding microarray (RPBM); PBS, 2% BSA, 51.3 ng/ul salmon testes DNA, 50 uM zinc acetate, 200 nM TF, 25 C, 1 h; high values mean tight binding
- condition label: protein: recombinant; tags: N-terminal polyhistidine and DsRed monomer fusion (pET32a); chain copies: 2; label: CyDye5-dUTP incorporated in the synthesized complementary strand; 3' TTTTT single-stranded linker to array surface; dsDNA, one strand shown
Over roughly 39,000 sequences, “fluorescence intensity (a.u.)” has its median near 4,300; the highest 2% begin near 39,000. This is one part of a sample in which the highest values are shown more often than they occur.
# Lookup of reported binding signal keyed by entry

Before answering, review these 4 worked examples.
GCTATAATATATTGCAGCAGCAGCAGCAGTGGTGGTGGTGCGGAGTCACCTAGTGCAG : 3360 fluorescence intensity (a.u.)
ACTAAGCTGCCACGTGGATGCCACGTCAGCGAAAACCACCCGGAGTCACCTAGTGCAG : 61800 fluorescence intensity (a.u.)
TGGTAGGGAAGCAGGTGGAAGGAGGACAGGAAGGCCCAATCGGAGTCACCTAGTGCAG : 34000 fluorescence intensity (a.u.)
AGCTGGACAAGATCGGAATAGTAGGCCAGGCCCAAAGCAACGGAGTCACCTAGTGCAG : 49400 fluorescence intensity (a.u.)

**Query** Find the measured binding signal of TGCCACGTCAGCGAAAACCACCATCTAAACCACCGCCATGCGGAGTCACCTAGTGCAG with OsSMF1 (Oryza sativa, UniProt Q6ZLB0 1-436) as test system.
**Result** 7960 fluorescence intensity (a.u.)
